Numbers sourced from the supplement of paper PMC4862054.

Tested on: MDA-MB-436
assay.comment: normalised viability (% of control), CellTiter-Blue; higher = more viable cells (about 100 = DMSO control)
conditions.used: 1000 nM; incubation time: 72 h
Listing of recorded normalised viability by entry.
Write it as a number; the unit % goes unstated.

O=C1CN2Cc3c(ccc(Cl)c3Cl)N=C2N1 [Anagrelide] :: 97
Nc1nc2[nH]cnc2c(=S)[nH]1 :: 74.5
CC(C)(C)c1cnc(CSc2cnc(NC(=O)C3CCNCC3)s2)o1 :: 16.2
CC(=O)c1c(C)c2cnc(Nc3ccc(N4CCNCC4)cn3)nc2n(C2CCCC2)c1=O :: 36.7

Pending compound:
# lookup: normalised viability of "O=P(O)(O)C(O)(Cn1ccnc1)P(=O)(O)O"
89.2

###

Tested on: HDQ-P1
assay.comment: normalised viability (% of control), CellTiter-Blue; higher = more viable cells (about 100 = DMSO control)
conditions.used: 3 nM; incubation time: 72 h
Listing of recorded normalised viability by entry.
Write it as a number; the unit % goes unstated.

Nc1ncn([C@@H]2O[C@H](CO)[C@@H](O)[C@H]2O)c(=O)n1 [Azacitidine] :: 141

# lookup: normalised viability of Cn1cc(C2=Nc3cc(NC(=O)C(N)C4CCCCC4)cc4c3C2=CNNC4=O)cn1 (stereo not given)
104

Also need Cn1cnc2c(F)c(Nc3ccc(Br)cc3Cl)c(C(=O)NOCCO)cc21 [Selumetinib] , thanks.
92.4

Also need O=P(O)(O)C(O)(Cn1ccnc1)P(=O)(O)O [Zoledronic acid] , thanks.
94.6

Also need CC(C)(C)c1cnc(CSc2cnc(NC(=O)C3CCNCC3)s2)o1 [SNS-032] , thanks.
113

###

Listing of recorded normalised viability by entry.
System: CAL-148
assay.comment: normalised viability (% of control), CellTiter-Blue; higher = more viable cells (about 100 = DMSO control)
conditions.used: 10 nM; incubation time: 72 h
Write it as a number; the unit % goes unstated.

See these solved cases before continuing.
O=C1CN2Cc3c(ccc(Cl)c3Cl)N=C2N1 [Anagrelide] :: 97
COc1cc(F)c(F)c(Nc2ccc(I)cc2F)c1NS(=O)(=O)C1(C[C@H](O)CO)CC1 :: 93.6
Cc1sc2c(c1C)C(c1ccc(Cl)cc1)=N[C@@H](CC(=O)OC(C)(C)C)c1nnc(C)n1-2 [(+)JQ1] :: 94.7

# lookup: normalised viability of "Oc1ncnc2[nH]ncc12"
108

Also need "Nc1nc2[nH]cnc2c(=S)[nH]1" , thanks.
109

Also need "C[C@]1(O)C[C@@H](c2nc(-c3ccc4ccc(-c5ccccc5)nc4c3)c3c(N)nccn32)C1" , thanks.
101

Also need "O=NN(CCCl)C(=O)NCCCl" , thanks.
91.5

Also need Cn1cc(C2=Nc3cc(NC(=O)C(N)C4CCCCC4)cc4c3C2=CNNC4=O)cn1 (stereo not given) , thanks.
93.1

Also need "Nc1ncn([C@@H]2O[C@H](CO)[C@@H](O)[C@H]2O)c(=O)n1" , thanks.
82.7

Also need "Cn1cnc2c(F)c(Nc3ccc(Br)cc3Cl)c(C(=O)NOCCO)cc21" , thanks.
91.6

###

Tested on: MDA-MB-231
assay.comment: normalised response (% of control), CellTox Green; higher = less cell death (100 = DMSO, 0 = benzethonium chloride kill control)
conditions.used: incubation time: 72 h
Listing of recorded normalised response by entry.
Write it as a number; the unit % goes unstated.

See these solved cases before continuing.
Nc1nc2[nH]cnc2c(=S)[nH]1 [Thioguanine] (1000 nM) :: 48.4
Cc1sc2c(c1C)C(c1ccc(Cl)cc1)=N[C@@H](CC(=O)OC(C)(C)C)c1nnc(C)n1-2 [(+)JQ1] (10000 nM) :: 62.5
C[C@]1(O)C[C@@H](c2nc(-c3ccc4ccc(-c5ccccc5)nc4c3)c3c(N)nccn32)C1 [Linsitinib] (100 nM) :: 83.4

Pending compound:
# lookup: normalised response of CC(=O)N(O)CCCCCNC(=O)CCC(=O)N(O)CCCCCNC(=O)CCC(=O)N(O)CCCCCN [Deferoxamine] (10000 nM)
98.7
